experimental-target: Integrin alpha-IIb/beta-3 (Homo sapiens, UniProt P05106+P08514)
Sequence (P05106 27-788 limits assumed): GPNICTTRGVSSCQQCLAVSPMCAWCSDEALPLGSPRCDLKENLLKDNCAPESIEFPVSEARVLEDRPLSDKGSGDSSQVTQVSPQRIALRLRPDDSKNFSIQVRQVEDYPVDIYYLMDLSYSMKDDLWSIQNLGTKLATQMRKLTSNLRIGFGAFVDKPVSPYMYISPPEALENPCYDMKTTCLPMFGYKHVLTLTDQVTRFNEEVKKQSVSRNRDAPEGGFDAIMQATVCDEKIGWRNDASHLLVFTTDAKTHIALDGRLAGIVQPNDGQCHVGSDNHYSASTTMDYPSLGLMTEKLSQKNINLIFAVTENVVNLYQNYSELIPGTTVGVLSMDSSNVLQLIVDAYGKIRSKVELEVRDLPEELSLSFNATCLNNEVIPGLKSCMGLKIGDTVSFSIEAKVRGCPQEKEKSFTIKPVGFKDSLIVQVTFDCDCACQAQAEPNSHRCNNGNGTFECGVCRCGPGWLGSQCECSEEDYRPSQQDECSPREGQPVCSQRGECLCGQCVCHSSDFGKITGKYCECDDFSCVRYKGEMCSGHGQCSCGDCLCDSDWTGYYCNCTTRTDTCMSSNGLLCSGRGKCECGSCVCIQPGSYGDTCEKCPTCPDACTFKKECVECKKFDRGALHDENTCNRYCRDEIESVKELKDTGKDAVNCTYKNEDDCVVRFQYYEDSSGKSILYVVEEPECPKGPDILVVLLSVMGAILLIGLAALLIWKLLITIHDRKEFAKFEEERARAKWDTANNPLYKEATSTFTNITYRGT
Sequence (P08514 32-887 limits assumed): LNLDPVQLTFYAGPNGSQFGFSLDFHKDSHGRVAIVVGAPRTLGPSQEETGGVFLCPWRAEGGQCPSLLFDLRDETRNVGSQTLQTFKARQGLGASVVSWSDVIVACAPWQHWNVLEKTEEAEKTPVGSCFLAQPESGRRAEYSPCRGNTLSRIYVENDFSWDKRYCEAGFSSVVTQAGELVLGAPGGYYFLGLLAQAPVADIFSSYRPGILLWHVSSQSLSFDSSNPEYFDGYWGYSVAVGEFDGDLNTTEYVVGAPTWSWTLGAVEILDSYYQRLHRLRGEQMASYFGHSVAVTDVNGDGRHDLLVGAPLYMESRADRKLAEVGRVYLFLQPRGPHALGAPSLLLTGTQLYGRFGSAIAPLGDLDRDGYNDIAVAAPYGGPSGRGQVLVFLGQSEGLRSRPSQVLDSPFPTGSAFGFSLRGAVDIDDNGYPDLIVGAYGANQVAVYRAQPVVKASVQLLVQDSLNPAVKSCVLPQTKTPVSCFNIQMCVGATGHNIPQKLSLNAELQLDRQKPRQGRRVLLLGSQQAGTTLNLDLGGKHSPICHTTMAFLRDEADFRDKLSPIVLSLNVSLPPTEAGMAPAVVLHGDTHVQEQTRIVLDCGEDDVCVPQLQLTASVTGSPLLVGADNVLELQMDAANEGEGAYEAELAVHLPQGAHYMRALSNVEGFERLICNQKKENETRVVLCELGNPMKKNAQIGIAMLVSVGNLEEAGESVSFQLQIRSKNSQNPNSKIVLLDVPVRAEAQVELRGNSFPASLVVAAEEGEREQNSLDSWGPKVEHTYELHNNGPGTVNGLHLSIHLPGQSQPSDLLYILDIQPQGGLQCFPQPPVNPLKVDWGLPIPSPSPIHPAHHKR
Sequence (P08514 891-1039 limits assumed): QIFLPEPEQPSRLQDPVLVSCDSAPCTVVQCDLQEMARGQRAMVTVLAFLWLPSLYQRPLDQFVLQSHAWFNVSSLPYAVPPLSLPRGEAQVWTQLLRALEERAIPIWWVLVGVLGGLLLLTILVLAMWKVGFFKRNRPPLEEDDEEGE
assay-explanation: In vitro inhibition of biotinylated fibrinogen binding to immobilized fibrinogen receptor.
pIC50: −log10 of the molar value.
readout-label: pIC50

INSERT INTO measurements (compound, experimental_target, result_number) VALUES
  ('C#C[C@H](CC(=O)OCC)NC(=O)CCC(=O)Nc1ccc(C(=N)N)cc1 [XEMILOFIBAN]', 'Integrin alpha-IIb/beta-3 (Homo sapiens, UniProt P05106+P08514)', 8.70);

(P) N=CN1CCC(CCC(=O)N2CCC[C@@H](C(=O)N[C@@H](CC(=O)O)c3cccnc3)C2)CC1
(Q) O=C(O)CC(NC(=O)C1CCCN(C(=O)CCC2CCNCC2)C1)c1cncc(-c2ccc(Cl)s2)c1 (stereo not drawn)
(R) O=C(O)C[C@H](NC(=O)[C@@H]1CCCN(C(=O)CCC2CCNCC2)C1)c1cnc(Cl)c(Cl)c1
(S) O=C(O)C[C@H](NC(=O)[C@H]1CN(C(=O)CCC2CCNCC2)CCN1)c1cccnc1
// smallest pIC50 at index 0, largest at the end Put the labels in the requested order and list them out.
Q, S, P, R

(A) O=C(O)C[C@H](NC(=O)[C@@H]1CCCN(C(=O)CCC2CCNCC2)C1)c1cncc(CCc2ccccc2)c1
(B) O=C(O)CC(NC(=O)C1CCCN(C(=O)CCC2CCNCC2)C1)c1cncc(-c2cccs2)c1 (stereo not drawn)
(C) O=C(O)C[C@H](C#Cc1ccccc1)NC(=O)[C@@H]1CCCN(C(=O)CCC2CCNCC2)C1
(D) O=C(O)CC(NC(=O)C1CCCN(C(=O)CCC2CCNCC2)C1)c1cccnc1 (stereo not drawn)
Order each entry by recorded pIC50, climbing from the minimum. Labels, ranked as asked.
D, B, A, C

(A) O=C(O)C[C@@H](C#Cc1ccccc1)NC(=O)[C@@H]1CCCN(C(=O)CCC2CCNCC2)C1
(B) O=C(O)CC(NC(=O)C1CCCN(C(=O)CCC2CCNCC2)C1)c1cncc(-c2ccsc2)c1 (stereo not drawn)
Identify the item whose pIC50 is the smaller number: A or B Answer with the label corresponding to your selection.
B
(B: 8.70, A: 9.54)

(P) O=C(O)C[C@H](NC(=O)[C@@H]1CCN(C(=O)/C=C/C2CCNCC2)C1)c1cccnc1
(Q) O=C(N[C@H](Cc1ccccc1)[C@@H](O)C(=O)O)[C@@H]1CCCN(C(=O)CCC2CCNCC2)C1
(R) Nc1cccc(-c2cncc(C(CC(=O)O)NC(=O)C3CCCN(C(=O)CCC4CCNCC4)C3)c2)c1 (stereo not drawn)
(S) CN1CCC(CCC(=O)N2CCC[C@@H](C(=O)N[C@H](CC(=O)O)c3ccc4c(c3)OCO4)C2)CC1
(T) Cc1ccc([C@H](CC(=O)O)NC(=O)[C@@H]2CCCN(C(=O)CCC3CCNCC3)C2)cn1
Ascending by pIC50, please: list the compounds accordingly. # respond with the labels, arranged in the requested order
Q, R, P, S, T

// provenance: ChEMBL document CHEMBL1132284
